# Study Target: Cytochrome P450 1A2 (Homo sapiens)
# Assay Name: Cytochrome panel assay with activity outcomes
# Particulars: recombinant CYP, pro-luciferin dealkylation, luminescence, p450-cyp1a2; series mostly up to 57.1 µM
The campaign covered roughly 16,000 compounds. About 5,700 (36%) were called active. Inconclusive results (about 24%) are left out. Calls come from the whole dose curve; as a rule, active = well fitted curve in the direction sought with a large enough effect; inconclusive = small, poorly fitted or top-dose-only effect, or effect the other way; inactive = no such curve, though single readings can be large or run the other way. The list shows a part of the results.
The reply should be one of these categories: 1 = active, -1 = inactive

INPUT: Outcome? COC(=O)N1CCC2(CC1)CCN(c1cccc(-c3ccccc3)c1)CC2
OUTPUT: -1

INPUT: Outcome? Cc1noc(C)c1-c1nccc(N(C)C)n1
OUTPUT: 1

INPUT: Outcome? O=S(=O)(N/N=C\c1cn(-c2ccccc2)nc1-c1ccccc1)c1ccccc1
OUTPUT: 1

INPUT: Outcome? O=c1cnc2cncnc2n1Cc1ccccc1
OUTPUT: 1

INPUT: Outcome? O=C1/C(=C\c2ccc(Br)o2)SC(=Nc2ccccc2)N1c1ccccc1
OUTPUT: 1

INPUT: Outcome? COC(=O)N1CCC2(CC1)CCN(c1ccccc1)CC2
OUTPUT: -1

INPUT: Outcome? Fc1nc(N2CCCC2)c(F)c(Oc2ccccc2Oc2c(F)c(F)nc(N3CCCC3)c2F)c1F
OUTPUT: -1

INPUT: Outcome? Cc1cccc(N/C(=N\S(=O)(=O)c2ccccc2)C(F)(F)F)c1
OUTPUT: 1

INPUT: Outcome? CC(C)CCn1c(Oc2ccccc2Cl)nc2c1c(=O)n(C)c(=O)n2C
OUTPUT: 1

INPUT: Outcome? COC(=O)N1CCC2(CC1)CN(c1cccc(-c3ccccc3)c1)C2
OUTPUT: -1

INPUT: Outcome? COc1ccc2[nH]cc(CCNc3ncncc3-c3ccccc3CN(C)C)c2c1
OUTPUT: 1

---

# Study Target: Cytochrome P450 1A2 (Homo sapiens) (UniProt P05177)
# Sequence (P05177 whole entry, looked up): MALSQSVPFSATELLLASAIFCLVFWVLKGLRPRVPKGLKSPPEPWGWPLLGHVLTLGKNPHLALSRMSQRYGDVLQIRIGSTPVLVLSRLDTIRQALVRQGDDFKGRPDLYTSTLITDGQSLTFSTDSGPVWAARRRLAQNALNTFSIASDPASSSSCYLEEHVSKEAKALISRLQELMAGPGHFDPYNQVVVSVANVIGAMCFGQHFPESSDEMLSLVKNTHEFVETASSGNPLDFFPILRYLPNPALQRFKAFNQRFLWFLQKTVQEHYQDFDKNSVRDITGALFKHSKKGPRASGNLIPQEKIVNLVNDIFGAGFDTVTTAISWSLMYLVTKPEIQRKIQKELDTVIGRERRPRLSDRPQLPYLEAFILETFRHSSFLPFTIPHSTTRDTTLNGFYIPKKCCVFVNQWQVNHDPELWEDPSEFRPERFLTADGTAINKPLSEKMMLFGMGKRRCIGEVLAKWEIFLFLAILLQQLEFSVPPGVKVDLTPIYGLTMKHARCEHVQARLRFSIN
# Assay Name: Cytochrome panel assay with activity outcomes
# Particulars: recombinant CYP, pro-luciferin dealkylation, luminescence, p450-cyp1a2; series mostly up to 57.1 µM
Screen size: about 16,000 compounds; about 5,700 (36%) were called active. Not shown: some 24% with an inconclusive outcome. Calls follow the shape of the dose curve; as a rule, active = well fitted curve in the direction sought with a large enough effect; inconclusive = small, poorly fitted or top-dose-only effect, or effect the other way; inactive = no such curve, though single readings can be large or run the other way. This is one part of the list.
The reply should be one of these categories: active, inactive

INPUT: Outcome? CCC(C(=O)c1ccccc1)N(C(=O)c1ccccc1Cl)N1C(=O)C2C3C=CC(C3)C2C1=O (configuration not stated)
OUTPUT: inactive

INPUT: Outcome? COC(=O)CC1C(=O)NCCN1C(=O)Nc1ccc(Cl)cc1 (configuration not stated)
OUTPUT: inactive

INPUT: Outcome? O=C(Nc1ccc(Cl)cc1)c1cnc(-c2ccccc2)nc1-c1ccccc1
OUTPUT: active

INPUT: Outcome? S=c1[nH]c2cc(Cl)ccc2s1
OUTPUT: active

INPUT: Outcome? CCOc1ccccc1Oc1c(C)oc2cc(OC(=O)c3ccco3)ccc2c1=O
OUTPUT: inactive

INPUT: Outcome? COn1c(SCc2cccc(Cl)c2)nc2ccccc2c1=O
OUTPUT: active

INPUT: Outcome? CC(C)(C)NC(=O)CSC(=Nc1ccc(F)cc1)NC#N
OUTPUT: active

---

# Study Target: Cytochrome P450 1A2 (Homo sapiens) (UniProt P05177)
# Assay Name: Cytochrome panel assay with activity outcomes
# Particulars: recombinant CYP, pro-luciferin dealkylation, luminescence, p450-cyp1a2; series mostly up to 57.1 µM
Among all 16,000 compounds or so, about 5,700 (36%) were called active. About 24% were inconclusive and are not listed. Calls come from the whole dose curve; as a rule, active = well fitted curve in the direction sought with a large enough effect; inconclusive = small, poorly fitted or top-dose-only effect, or effect the other way; inactive = no such curve, though single readings can be large or run the other way. Some of the results follow.
The reply should be one of these categories: active, inactive

INPUT: Outcome? C/C(=N\N1CCN(C2c3ccccc3-c3ccccc32)CC1)c1cccnc1
OUTPUT: active

INPUT: Outcome? c1ccc2c(c1)CCCc1cc(NCCN3CCOCC3)nnc1-2
OUTPUT: inactive

INPUT: Outcome? N#C[C@H](Cc1ccc(O)cc1)c1ccc(O)cc1
OUTPUT: active

INPUT: Outcome? CS(=O)(=O)N1CCC2(CCCN(C(c3ccccc3)c3ccccc3)C2)CC1
OUTPUT: inactive

INPUT: Outcome? CCOc1ccc(-n2c(SCC(=O)Nc3ccc4c(c3)OCCO4)nc3c(c2=O)SCC3)cc1
OUTPUT: inactive

INPUT: Outcome? CCn1nnnc1SCC(=O)NC1CCCC1
OUTPUT: inactive

INPUT: Outcome? COCCNC(=O)c1onc(CSc2ccc(Cl)cc2)c1C(=O)O
OUTPUT: inactive

INPUT: Outcome? COC(=O)[C@@]1(Cc2ccc(F)cc2)[C@H]2c3cc(C(=O)N4CCCC4)n(CCCNc4ncc(C(F)(F)F)cc4Cl)c3C[C@H]2CN1C(=O)c1ccccc1
OUTPUT: inactive

INPUT: Outcome? CN(C)c1ccc(-c2nccc(NCCN3CCOCC3)n2)cc1
OUTPUT: active

INPUT: Outcome? CC(=C/c1ccccc1)/C=N/n1cnnc1
OUTPUT: active

INPUT: Outcome? CN1CCC2(CC1)CCN(C(=O)c1ccncc1)CC2
OUTPUT: inactive
